B1: TMEM175 (parent)
chain: QTSAFARQPRDELERVRVSCTIIF

Variants of: B1
Test: protein stability index of a GFP-peptide fusion (GPS, HEK-293T) (PSI 1-6); higher = more stable;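 further: lentivirally expressed fusions sorted by FACS into six bins by GFP to DsRed ratio, PSI derived from sequencing read proportions per bin multiplied by bin number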
Settings: c terminus: a fixed tail appended
Definition: the class of an entry is the range in bucket A: < 2; bucket B: ≥ 2 and < 3; bucket C: ≥ 3 that contains its protein stability index.

> print(dat)
   mutation.list  label.class
1           D11K     bucket C
2           V18Y     bucket B
3            F5D     bucket A
4            P9T     bucket B

Consider the additional variant presented here.
Request: Into which bin does this variant go? V18A
Response: bucket B
